compounds and their reported SI (selectivity index) RPMI-7951
- Tested on: human melanoma cells RPMI-7951
- assay.procedure: Cell viability, MTS assay, RPMI-7951
- Format: cell-based
- conditions: IC50 JB6 Cl41 / IC50 RPMI-7951

compound: C=C(C)C1C2CC3(C)C4=CCC5C(C)(C)C(OC6OCC(O)C(O)C6OC6OC(C)C(OC7OC(COS(=O)(=O)O)C(O)C(OC8OCC(O)C(OC)C8O)C7O)C(O)C6O)CCC5(C)C4CCC13C(=O)O2 (stereo not shown) [Compound 9]
SI (selectivity index) RPMI-7951: 0.23

compound: COC1C(O)COC(OC2C(O)C(COS(=O)(=O)O)OC(OC3C(C)OC(OC4C(OC5CCC6(C)C7CCC89C(=O)OC(C)(C=CC=C(C)C)C8C(OC(C)=O)CC9(C)C7=CCC6C5(C)C)OCC(O)C4O)C(O)C3O)C2O)C1O (stereo not shown) [Compound 3]
SI (selectivity index) RPMI-7951: 0.22

compound: COC1C(O)COC(OC2C(O)C(COS(=O)(=O)O)OC(OC3C(C)OC(OC4C(OC5CCC6(C)C7CCC89C(=O)OC(C)(C=CC=C(C)C)C8C(OC(C)=O)CC9(C)C7=CCC6C5(C)C)OCC(O)C4O)C(O)C3O)C2O)C1O (stereo not shown) [Compound 6]
SI (selectivity index) RPMI-7951: 0.2

compound: COC1C(O)C(CO)OC(OC2C(O)C(CO)OC(OC3C(C)OC(OC4C(OC5CCC6(C)C7CCC89C(=O)OC(C)(C=CC=C(C)C)C8C(OC(C)=O)CC9(C)C7=CCC6C5(C)C)OCC(O)C4O)C(OC4OCC(O)C(O)C4O)C3O)C2O)C1O (stereo not shown) [Compound 4, cucumarioside D]
SI (selectivity index) RPMI-7951: 0.2

###

- System: JB6 Cl41 cells
- assay.procedure: Soft agar assay, TPA-induced neoplastic cell transformation
- Type: cell-based, mouse
- conditions: Mus musculus, JB6 Cl41, 336 h, compound 0.1 µM, TPA 10 ng/mL, soft agar, 2 weeks, vs positive control; read-out: inhibition of TPA-induced neoplastic transformation of JB6 Cl41 cells
experimental.endpoint: inhibition at 0.1 µM (%)

molecule: CC(=O)OC1CC2(C)C3=CCC4C(C)(C)C(OC5OCC(O)C(O)C5OC5OC(C)C(OC6OC(CO)C(O)C(O)C6O)C(O)C5OC5OCC(O)C(O)C5O)CCC4(C)C3CCC23C(=O)OC(C)(C=CC=C(C)C)C13 (stereo not shown)
numeric.result: 18
--
molecule: C=C(C)C1C2CC3(C)C4=CCC5C(C)(C)C(OC6OCC(O)C(O)C6OC6OC(C)C(OC7OC(COS(=O)(=O)O)C(O)C(OC8OCC(O)C(OC)C8O)C7O)C(O)C6O)CCC5(C)C4CCC13C(=O)O2 (stereo not shown)
numeric.result: 42
--
molecule: COC1C(O)C(CO)OC(OC2C(O)C(CO)OC(OC3C(C)OC(OC4C(OC5CCC6(C)C7CCC89C(=O)OC(C)(C=CC=C(C)C)C8C(OC(C)=O)CC9(C)C7=CCC6C5(C)C)OCC(O)C4O)C(OC4OCC(O)C(O)C4O)C3O)C2O)C1O (stereo not shown)
numeric.result: 98
--
molecule: C=C(C)C1C2CC3(C)C4=CCC5C(C)(C)C(OC6OCC(O)C(O)C6OC6OC(C)C(OC7OC(CO)C(O)C(O)C7O)C(O)C6OC6OCC(O)C(O)C6O)CCC5(C)C4CCC13C(=O)O2 (stereo not shown)
numeric.result: 20
